# Subject Of Test: Caspase 3 (Homo sapiens, UniProt P42574)
# Sequence (P42574 29-175 limits assumed): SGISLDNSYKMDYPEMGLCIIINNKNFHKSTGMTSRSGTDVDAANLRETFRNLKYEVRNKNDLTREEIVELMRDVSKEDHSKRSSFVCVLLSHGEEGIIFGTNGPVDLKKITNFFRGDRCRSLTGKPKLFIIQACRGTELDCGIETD
# Sequence (P42574 176-277 limits assumed): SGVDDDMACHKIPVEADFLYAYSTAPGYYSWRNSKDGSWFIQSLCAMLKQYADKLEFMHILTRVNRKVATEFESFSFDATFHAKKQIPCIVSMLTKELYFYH
# Test Summary: Caspase 3 activity assay
# Assay type: biochemical
# Applied Conditions: 500 nM Ac-DEVD-AMC, 3.2 nM enzyme, 30 min pre-incubation at 25° C., 60 min at 37° C.; sigmoidal fit; AF: Autofluorescent; read-out: Casp3 (inhibition of cysteine protease activity)
Measured IC50 of individual entries

Query: Using known records, supply IC50 for `N#Cc1nc2c(nc1C#N)-c1ccccc1C2=NO`
Reply: 5.6 µM

Query: Using known records, supply IC50 for Cc1ccc2c(c1)-c1nc(C#N)c(C#N)nc1C2=O [Example 17e]
Reply: 3.3 µM

Query: Using known records, supply IC50 for `N#Cc1nc2c(nc1Cl)-c1ccccc1C2=O`
Reply: > 100 µM

Query: Using known records, supply IC50 for `CN(C)c1nc2c(nc1C#N)C(=O)c1ccccc1-2`
Reply: > 100 µM

Query: Using known records, supply IC50 for `N#Cc1nc2c(nc1C(N)=O)-c1ccccc1C2=O`
Reply: 0.402 µM

====

Measured IC50 of individual entries
Sequence of the target: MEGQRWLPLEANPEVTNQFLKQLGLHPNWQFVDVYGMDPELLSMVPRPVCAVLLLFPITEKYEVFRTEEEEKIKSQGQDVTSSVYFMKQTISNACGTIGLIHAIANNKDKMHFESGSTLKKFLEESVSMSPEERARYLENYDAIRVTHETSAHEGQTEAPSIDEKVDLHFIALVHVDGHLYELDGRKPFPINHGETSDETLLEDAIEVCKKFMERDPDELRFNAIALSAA
Your answer should be a plain number; it is taken to be in nM.

1) N#Cc1nc2c(nc1C(N)=O)-c1ccccc1/C2=N\O [Example 33] | 596
2) N#Cc1nc2c(nc1CC(N)=O)-c1ccccc1C2=O [Example 26] | 1600

Query: Using known records, supply IC50 for CC(=O)O/N=C1\c2ccccc2-c2nc(C(N)=O)c(C#N)nc21 (single isomer, unassigned) [Example 35]
Reply: 48

====

# Subject Of Test: UniProtKB P45974
pIC50: −log10 of the molar value.
Each entry gets Not satisfied if its pIC50 stays under 6, and Satisfied if its pIC50 is 6 or above.

Query: Check this compound for pIC50 at or above 6: CON=C1c2ccccc2-c2nc(C#N)c(C#N)nc21 [Example 13a]
Reply: Not satisfied

Query: Check this compound for pIC50 at or above 6: CON=C1c2ccccc2-c2nc(C(N)=O)c(C#N)nc21 [Example 34d]
Reply: Satisfied

Query: Check this compound for pIC50 at or above 6: `N#Cc1nc2c(nc1C#N)-c1ccccc1C2=NO`
Reply: Not satisfied

Query: Check this compound for pIC50 at or above 6: `N#Cc1nc2c(nc1N)-c1ccccc1C2=O`
Reply: Not satisfied

====

# Subject Of Test: USP8 (Homo sapiens)
# Sequence (P40818 whole entry): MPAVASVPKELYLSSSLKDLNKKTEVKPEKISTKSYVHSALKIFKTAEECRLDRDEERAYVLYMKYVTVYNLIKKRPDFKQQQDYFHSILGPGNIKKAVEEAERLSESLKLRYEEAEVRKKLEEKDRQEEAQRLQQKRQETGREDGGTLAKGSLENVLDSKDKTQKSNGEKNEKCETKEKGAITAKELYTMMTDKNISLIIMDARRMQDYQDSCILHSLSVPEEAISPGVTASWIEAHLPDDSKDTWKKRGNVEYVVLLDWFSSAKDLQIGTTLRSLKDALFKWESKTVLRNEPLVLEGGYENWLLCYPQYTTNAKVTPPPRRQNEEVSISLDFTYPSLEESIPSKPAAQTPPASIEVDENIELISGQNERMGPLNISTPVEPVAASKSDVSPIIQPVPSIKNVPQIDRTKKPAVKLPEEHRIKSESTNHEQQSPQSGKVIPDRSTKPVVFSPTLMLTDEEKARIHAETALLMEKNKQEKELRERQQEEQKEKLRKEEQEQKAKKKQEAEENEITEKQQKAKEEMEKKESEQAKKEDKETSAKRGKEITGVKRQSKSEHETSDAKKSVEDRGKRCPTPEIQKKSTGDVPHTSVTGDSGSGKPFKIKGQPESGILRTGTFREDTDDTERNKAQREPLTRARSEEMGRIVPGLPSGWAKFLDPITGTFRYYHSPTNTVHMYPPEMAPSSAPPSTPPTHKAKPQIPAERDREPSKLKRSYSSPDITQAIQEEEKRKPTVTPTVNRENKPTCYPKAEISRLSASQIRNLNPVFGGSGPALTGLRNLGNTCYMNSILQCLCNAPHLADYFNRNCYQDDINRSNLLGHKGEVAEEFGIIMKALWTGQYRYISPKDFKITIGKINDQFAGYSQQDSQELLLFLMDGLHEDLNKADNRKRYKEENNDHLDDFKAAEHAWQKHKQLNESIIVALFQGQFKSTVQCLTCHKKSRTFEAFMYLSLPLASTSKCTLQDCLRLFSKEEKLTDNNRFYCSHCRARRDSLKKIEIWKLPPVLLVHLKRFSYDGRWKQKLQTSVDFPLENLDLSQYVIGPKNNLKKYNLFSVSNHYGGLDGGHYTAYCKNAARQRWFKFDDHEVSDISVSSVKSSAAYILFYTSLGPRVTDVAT
Measured pIC50 of individual entries
The scale used: pIC50 is minus the common logarithm of the concentration in molar units.

1. N#Cc1nc2c(nc1C(N)=O)-c1ccccc1C2=O | 6.69
2. N#Cc1nc2c(nc1C#N)-c1ccccc1C2=Nc1ccccc1 (mixture of isomers) | 6.46
3. COc1nc2c(nc1C#N)C(=O)c1ccccc1-2 | 4.51
4. CC(=O)O/N=C1\c2ccccc2-c2nc(C(N)=O)c(C#N)nc21 (single isomer, unassigned) | 7.57
5. N#Cc1nc2c(nc1C#N)-c1ccc(F)cc1C2=O [Example 17h] | 6.60
6. N#Cc1nc2c(nc1Cl)-c1ccccc1C2=O | 4.79
7. N#Cc1nc2c(nc1C(N)=O)-c1ccccc1/C2=N\OCC(=O)O | 6.57

Now take the following molecule into account.
Query: GET pIC50 where system = USP8 (Homo sapiens) and item = COc1ccc(OC)c2c1C(=O)c1nc(C#N)c(C#N)nc1-2 [Example 17f]
Reply: 6.09

====

# Subject Of Test: USP5 (Homo sapiens, UniProt P45974)
# Sequence (P45974 whole entry, species assumed): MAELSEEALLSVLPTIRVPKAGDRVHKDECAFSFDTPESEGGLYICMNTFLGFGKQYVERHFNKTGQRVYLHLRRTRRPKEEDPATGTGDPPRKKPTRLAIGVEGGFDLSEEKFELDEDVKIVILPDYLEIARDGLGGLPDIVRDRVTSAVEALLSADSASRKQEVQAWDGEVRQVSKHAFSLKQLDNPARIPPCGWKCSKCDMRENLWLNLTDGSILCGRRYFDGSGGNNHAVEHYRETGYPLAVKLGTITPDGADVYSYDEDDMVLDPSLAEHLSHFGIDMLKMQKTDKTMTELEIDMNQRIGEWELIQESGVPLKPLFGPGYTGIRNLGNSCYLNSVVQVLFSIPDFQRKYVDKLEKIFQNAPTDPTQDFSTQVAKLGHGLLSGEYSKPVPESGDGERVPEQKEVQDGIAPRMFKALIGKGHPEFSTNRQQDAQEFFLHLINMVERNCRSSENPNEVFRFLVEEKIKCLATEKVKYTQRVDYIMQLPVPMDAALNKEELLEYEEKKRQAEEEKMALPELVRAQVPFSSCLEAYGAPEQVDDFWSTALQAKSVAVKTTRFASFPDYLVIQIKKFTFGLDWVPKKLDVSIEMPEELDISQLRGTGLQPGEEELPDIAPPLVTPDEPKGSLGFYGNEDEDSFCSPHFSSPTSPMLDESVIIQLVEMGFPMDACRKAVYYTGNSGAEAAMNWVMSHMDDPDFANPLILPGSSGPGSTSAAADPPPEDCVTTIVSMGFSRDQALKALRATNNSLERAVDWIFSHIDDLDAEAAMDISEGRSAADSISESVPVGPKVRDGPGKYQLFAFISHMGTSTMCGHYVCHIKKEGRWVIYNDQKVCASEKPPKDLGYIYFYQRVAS
Reported Property: IC50 (µM)
Your answer should be a plain number; it is taken to be in µM.

Answered cases to consult:
1) N#Cc1nc2c(nc1CC(N)=O)-c1ccccc1C2=O | 60
2) Cc1c(F)ccc2c1C(=O)c1nc(C#N)c(C#N)nc1-2 | 1.61
3) N#Cc1nc2c(nc1C(N)=O)-c1ccccc1/C2=N\OCC(=O)O | 1.85
4) N#Cc1nc2c(nc1C#N)-c1ccccc1/C2=N/Oc1ccccc1 [Example 13e] | 32
5) Cc1ccc2c(c1)-c1nc(C#N)c(C#N)nc1C2=O [Example 17e] | 7.8
6) N#Cc1nc2c(nc1C(N)=O)-c1ccccc1/C2=N\OCC(=O)NCC(=O)O | 1.89

Query: GET IC50 where system = USP5 (Homo sapiens, UniProt P45974) and item = N#Cc1nc2c(nc1C#N)-c1ccc(Cl)cc1C2=O [Example 17g]
Reply: 0.16

====

# Subject Of Test: UniProt P42574
# Test Summary: Caspase 3 activity assay
# Format: biochemical
# Applied Conditions: 500 nM Ac-DEVD-AMC, 3.2 nM enzyme, 30 min pre-incubation at 25° C., 60 min at 37° C.; sigmoidal fit; AF: Autofluorescent; read-out: Casp3 (inhibition of cysteine protease activity)
Reported Property: IC50 (µM)
Your answer should be a plain number; it is taken to be in µM.

1. N#Cc1nc2c(nc1C#N)-c1ccccc1C2=Nc1ccccc1 (mixture of isomers) [Example 14] | 1.3
2. C=CCON=C1c2ccc(Cl)cc2-c2nc(C#N)c(C#N)nc21 [Example 27c] | 2.83

Query: Using known records, supply IC50 for Cc1c(F)ccc2c1C(=O)c1nc(C#N)c(C#N)nc1-2 [Example 30]
Reply: 1.07

Query: Using known records, supply IC50 for COc1ccc2c(c1)C(=O)c1nc(C#N)c(C#N)nc1-2 [Example 17i]
Reply: 2

====

# Subject Of Test: Caspase 3 (Homo sapiens, UniProt P42574)
# Test Summary: Caspase 3 activity assay
# Type: biochemical
Reported Property: pIC50
The scale used: pIC50 is minus the common logarithm of the concentration in molar units.

Query: Using known records, supply pIC50 for `N#Cc1nc2c(nc1C(N)=O)-c1ccccc1/C2=N\OCC(=O)O`
Reply: 5.40

====

Measured pIC50 of individual entries
# Subject Of Test: UniProt P15374
The scale used: pIC50 is minus the common logarithm of the concentration in molar units.

Answered cases to consult:
1) N#Cc1nc2c(nc1C#N)-c1ccc(Cl)cc1C2=NNC(N)=O | 4.87
2) N#Cc1nc2c(nc1C#N)-c1ccc(F)cc1C2=O [Example 17h] | 6.48
3) N#Cc1nc2c(nc1Cl)-c1ccccc1C2=O | 5.06
4) C=CCON=C1c2ccc(Cl)cc2-c2nc(C#N)c(C#N)nc21 [Example 27c] | 6.30
5) N#Cc1nc2c(nc1C#N)-c1ccc(Cl)cc1C2=O [Example 17g] | 7.15

Query: Using known records, supply pIC50 for `CCO/C(O)=C(\C#N)c1nc2c(nc1C#N)C(=O)c1ccccc1-2`
Reply: 4.66

Query: Using known records, supply pIC50 for `N#Cc1nc2c(nc1N)-c1ccccc1C2=O`
Reply: 4.28

Query: Using known records, supply pIC50 for `N#Cc1nc2c(nc1O)-c1ccccc1C2=O`
Reply: 5.96

====

Measured GI50 of individual entries
# Test system: PC-3 prostate cancer cells
# Test Summary: PC3 cell viability and proliferation assay (MTS)
# Type: cell-based
# Applied Conditions: Homo sapiens, PC-3, 72 h, read-out: PC3 D3 GI50
Your answer should be a plain number; it is taken to be in nM.

1) CON=C1c2ccccc2-c2nc(C#N)c(C#N)nc21 [Example 13a] | 430

Query: Using known records, supply GI50 for CC(=O)O/N=C1\c2ccccc2-c2nc(C(N)=O)c(C#N)nc21 (single isomer, unassigned)
Reply: 1280

Query: Using known records, supply GI50 for N#Cc1nc2c(nc1C#N)-c1ccc(Cl)cc1C2=NOCCOc1ccccc1 [Example 27b]
Reply: 259

Query: Using known records, supply GI50 for N#Cc1nc2c(nc1C#N)-c1ccccc1C2=NOCCOc1ccccc1 [Example 27a]
Reply: 1000

Query: Using known records, supply GI50 for CON=C1c2ccccc2-c2nc(C(N)=O)c(C#N)nc21 [Example 34d]
Reply: 1200
